Below is a list of entries, each paired with its recorded Cadmium (Cd) Adsorption amount value.
- assay_text: Heavy metal removal ability test in contaminated soil (ICP-MS), cadmium
- reported_conditions: content 2.0% aqueous solution; contaminated soil
Write it as a number; the unit ppm goes unstated.

- structure: "O=C(O)c1ccc(N2CCN(c3ccc(C(=O)O)cc3)CCN(c3ccc(C(=O)O)cc3)CCN(c3ccc(C(=O)O)cc3)CC2)cc1"
  numeric_value: 77

Reported Cadmium (Cd) Adsorption amount ( O=C(O)c1ccc(N(CCN(CCN(c2ccc(C(=O)O)o2)c2ccc(C(=O)O)o2)c2ccc(C(=O)O)o2)CCN(c2ccc(C(=O)O)o2)c2ccc(C(=O)O)o2)o1 ) = 80

Short answer for C1CNCCNCCNCCN1 : Cadmium (Cd) Adsorption amount was 81

###

# Test result (number of subject) (−) annotations
- System: human skin
- assay_text: Skin irritation test of active ingredient (patch method, CTFA guidelines)
- Type: in vivo
- reported_conditions: content 1.0 wt %; 20 people, 24 h patch; (−) no erythema
// no unit string in output, number only

- structure: "O=C(O)c1ccc(N2CCCN(c3ccc(C(=O)O)cc3)CCN(c3ccc(C(=O)O)cc3)CCCN(c3ccc(C(=O)O)cc3)CC2)cc1"
  Test result (number of subject) (−): 19
- structure: "C1CNCCNCCNCCN1"
  Test result (number of subject) (−): 18

Looking up O=C(O)CN1CCCN(CC(=O)O)CCN(CC(=O)O)CCCN(CC(=O)O)CC1 , I found its Test result (number of subject) (−) recorded as 18

Item: O=C(O)c1ccc(N2CCN(c3ccc(C(=O)O)cc3)CCN(c3ccc(C(=O)O)cc3)CCN(c3ccc(C(=O)O)cc3)CC2)cc1 | Test result (number of subject) (−): 19

###

- assay_text: Heavy metal removal ability test in contaminated soil (ICP-MS), cadmium
- reported_conditions: content 2.0%; relative to EDTA control
Below is a list of entries, each paired with its recorded Cadmium (Cd) Adsorption rate value.
Numbers only here, please. The scale is %.

- compound: "O=C(O)CN1CCCN(CC(=O)O)CCN(CC(=O)O)CCCN(CC(=O)O)CC1 [Embodiment 9]"
  Cadmium (Cd) Adsorption rate [%]: 171
- compound: "O=C(O)CN1CCN(CC(=O)O)CCN(CC(=O)O)CCN(CC(=O)O)CC1 [Embodiment 5]"
  Cadmium (Cd) Adsorption rate [%]: 180
- compound: "C1CNCCNCCNCCN1 [Cyclen, 1,4,7,10-tetraazacyclododecane]"
  Cadmium (Cd) Adsorption rate [%]: 198
- compound: "O=C(O)c1ccc(N(CCN(CCN(c2ccc(C(=O)O)o2)c2ccc(C(=O)O)o2)c2ccc(C(=O)O)o2)CCN(c2ccc(C(=O)O)o2)c2ccc(C(=O)O)o2)o1 [Embodiment 4]"
  Cadmium (Cd) Adsorption rate [%]: 195
- compound: "O=C(O)c1cncc(N2CCN(c3cncc(C(=O)O)c3)CCN(c3cncc(C(=O)O)c3)CCN(c3cncc(C(=O)O)c3)CC2)c1 [Embodiment 7]"
  Cadmium (Cd) Adsorption rate [%]: 185

Cadmium (Cd) Adsorption rate reported for this compound O=C(O)c1ccc(N2CCN(c3ccc(C(=O)O)o3)CCN(c3ccc(C(=O)O)o3)CCN(c3ccc(C(=O)O)o3)CC2)o1 [Embodiment 8] : 173

Form: compound = NCCNCCNCCN [Trientine, Triethylenetetramine, reference compound] ; Cadmium (Cd) Adsorption rate = 193

###

- assay_text: Heavy metal removal ability test in contaminated soil (ICP-MS), cadmium
- reported_conditions: content 2.0%; relative to EDTA control
measured_parameter: Cadmium (Cd) Adsorption rate (%)
Report only the number, with the unit % understood.

# count of solved cases: 3
- structure: "O=C(O)c1ccc(N(CCN(CCN(c2ccc(C(=O)O)cc2)c2ccc(C(=O)O)cc2)c2ccc(C(=O)O)cc2)CCN(c2ccc(C(=O)O)cc2)c2ccc(C(=O)O)cc2)cc1"
  quantity_unit: "%"
  Cadmium (Cd) Adsorption rate: 215
- structure: "O=C(O)c1ccc(N2CCN(c3ccc(C(=O)O)cc3)CCN(c3ccc(C(=O)O)cc3)CCN(c3ccc(C(=O)O)cc3)CC2)cc1"
  quantity_unit: "%"
  Cadmium (Cd) Adsorption rate: 188
- structure: "O=C(O)c1ccc(N2CCCN(c3ccc(C(=O)O)o3)CCN(c3ccc(C(=O)O)o3)CCCN(c3ccc(C(=O)O)o3)CC2)o1"
  quantity_unit: "%"
  Cadmium (Cd) Adsorption rate: 176

Entry under test: O=C(O)c1cncc(N2CCCN(c3cncc(C(=O)O)c3)CCN(c3cncc(C(=O)O)c3)CCCN(c3cncc(C(=O)O)c3)CC2)c1 . Its Cadmium (Cd) Adsorption rate was 171

Reported Cadmium (Cd) Adsorption rate ( O=C(O)c1ccc(N2CCCN(c3ccc(C(=O)O)cc3)CCN(c3ccc(C(=O)O)cc3)CCCN(c3ccc(C(=O)O)cc3)CC2)cc1 ) = 173

Data point: O=C(O)CN(CCN(CCN(CC(=O)O)CC(=O)O)CC(=O)O)CCN(CC(=O)O)CC(=O)O ; Cadmium (Cd) Adsorption rate = 205

###

Examples of compounds with documented Nickel (Ni) Adsorption rate follow.
- assay_text: Heavy metal removal ability test in contaminated soil (ICP-MS), nickel
- reported_conditions: content 1.0%; relative to EDTA control
Form entry: value (%) — number only.

- structure: "O=C(O)CN1CCN(CC(=O)O)CCN(CC(=O)O)CCN(CC(=O)O)CC1"
  Nickel (Ni) Adsorption rate / %: 173
- structure: "O=C(O)CN(CCN(CCN(CC(=O)O)CC(=O)O)CC(=O)O)CCN(CC(=O)O)CC(=O)O"
  Nickel (Ni) Adsorption rate / %: 206
- structure: "O=C(O)c1cncc(N2CCCN(c3cncc(C(=O)O)c3)CCN(c3cncc(C(=O)O)c3)CCCN(c3cncc(C(=O)O)c3)CC2)c1"
  Nickel (Ni) Adsorption rate / %: 180

# ---- query compound ----
Looking up C1CNCCNCCNCCN1 , I found its Nickel (Ni) Adsorption rate recorded as 190

###

- assay_text: Heavy metal removal ability test in contaminated soil (ICP-MS), arsenic
- reported_conditions: content 1.0% aqueous solution; contaminated soil
Outcome label depends on Arsenic (As) Adsorption amount relative to 50 ppm: at/above gives true, below gives false.

These recorded examples may help you get a feel for the data.
- structure: "O=C(O)c1ccc(N2CCCN(c3ccc(C(=O)O)o3)CCN(c3ccc(C(=O)O)o3)CCCN(c3ccc(C(=O)O)o3)CC2)o1"
  assigned_label: "false"
- structure: "O=C(O)c1ccc(N2CCCN(c3ccc(C(=O)O)cc3)CCN(c3ccc(C(=O)O)cc3)CCCN(c3ccc(C(=O)O)cc3)CC2)cc1"
  assigned_label: "false"

Q. Evaluate O=C(O)c1ccc(N(CCN(CCN(c2ccc(C(=O)O)o2)c2ccc(C(=O)O)o2)c2ccc(C(=O)O)o2)CCN(c2ccc(C(=O)O)o2)c2ccc(C(=O)O)o2)o1 : Arsenic (As) Adsorption amount at minimum 50 ppm?
A. true

###

Catalogue of Nickel (Ni) Adsorption amount readings, one per entry.
- assay_text: Heavy metal removal ability test in contaminated soil (ICP-MS), nickel
- reported_conditions: content 0.5% aqueous solution; contaminated soil
Please provide the amount together with its unit, number first.

- compound: "O=C(O)c1ccc(N2CCN(c3ccc(C(=O)O)o3)CCN(c3ccc(C(=O)O)o3)CCN(c3ccc(C(=O)O)o3)CC2)o1 [Embodiment 8]"
  Nickel (Ni) Adsorption amount: "86 ppm"
- compound: "O=C(O)c1ccc(N2CCN(c3ccc(C(=O)O)cc3)CCN(c3ccc(C(=O)O)cc3)CCN(c3ccc(C(=O)O)cc3)CC2)cc1 [Embodiment 6]"
  Nickel (Ni) Adsorption amount: "81 ppm"

Consider the additional compound presented here.
Recorded result, O=C(O)CN(CCN(CC(=O)O)CC(=O)O)CC(=O)O [Control (EDTA), ethylenediaminetetraacetic acid, reference compound] , Nickel (Ni) Adsorption amount: 49 ppm

###

Recorded Degree of irritation, one value per entry.
- Test system: human skin
- assay_text: Skin irritation test of active ingredient (patch method, CTFA guidelines)
- Format: in vivo
- reported_conditions: content 1.0 wt %; 24 h patch
Keep the answer to the number alone.

- compound: "O=C(O)c1cncc(N2CCCN(c3cncc(C(=O)O)c3)CCN(c3cncc(C(=O)O)c3)CCCN(c3cncc(C(=O)O)c3)CC2)c1"
  measured_parameter: "Degree of irritation"
  numeric_value: 0.10

Given the compound O=C(O)c1ccc(N(CCN(CCN(c2ccc(C(=O)O)cc2)c2ccc(C(=O)O)cc2)c2ccc(C(=O)O)cc2)CCN(c2ccc(C(=O)O)cc2)c2ccc(C(=O)O)cc2)cc1 and test system human skin, the measured Degree of irritation is 0.05

# value of Degree of irritation, human skin, item O=C(O)c1ccc(N2CCN(c3ccc(C(=O)O)o3)CCN(c3ccc(C(=O)O)o3)CCN(c3ccc(C(=O)O)o3)CC2)o1 = 0.10

Record for O=C(O)c1ccc(N2CCCN(c3ccc(C(=O)O)cc3)CCN(c3ccc(C(=O)O)cc3)CCCN(c3ccc(C(=O)O)cc3)CC2)cc1 under target or system human skin: Degree of irritation reported as 0.05

Tested on human skin, the item C1CNCCNCCNCCN1 showed Degree of irritation equal to 0.15

Observed Degree of irritation, human skin, O=C(O)CN1CCN(CC(=O)O)CCN(CC(=O)O)CCN(CC(=O)O)CC1 : 0.05

// compound O=C(O)c1ccc(N(CCN(CCN(c2ccc(C(=O)O)o2)c2ccc(C(=O)O)o2)c2ccc(C(=O)O)o2)CCN(c2ccc(C(=O)O)o2)c2ccc(C(=O)O)o2)o1 , assay human skin, Degree of irritation value: 0.05

The reported human skin Degree of irritation of O=C(O)c1cncc(N2CCN(c3cncc(C(=O)O)c3)CCN(c3cncc(C(=O)O)c3)CCN(c3cncc(C(=O)O)c3)CC2)c1 is 0

Short answer on human skin for O=C(O)CN1CCCN(CC(=O)O)CCN(CC(=O)O)CCCN(CC(=O)O)CC1 , Degree of irritation: 0.10

The reported Degree of irritation value, human skin, for O=C(O)CN(CCN(CCN(CC(=O)O)CC(=O)O)CC(=O)O)CCN(CC(=O)O)CC(=O)O reads 0.20

Measured on human skin, O=C(O)c1ccc(N2CCN(c3ccc(C(=O)O)cc3)CCN(c3ccc(C(=O)O)cc3)CCN(c3ccc(C(=O)O)cc3)CC2)cc1 has a documented Degree of irritation of 0.05

For the compound O=C(O)c1ccc(N2CCCN(c3ccc(C(=O)O)o3)CCN(c3ccc(C(=O)O)o3)CCCN(c3ccc(C(=O)O)o3)CC2)o1 , the measured Degree of irritation on human skin was 0.05

The compound NCCNCCNCCN [Trientine, Triethylenetetramine, reference compound] , when measured on human skin, yielded Degree of irritation of 0.15
